tested on: Human immunodeficiency virus 1; assay: Antiviral activity against HIV1 infected in HEK293T cells by p24 ELISA based phenotypic assay; type: functional, organism-based; conditions: Human immunodeficiency virus 1, HEK-293T
pIC50: −log10 of the molar value.
Endpoint: pIC50

INSERT INTO assay_data (compound, endpoint, number) VALUES
  ('O=C(NCCO)c1[nH]c2ccc(Cl)cc2c1C1(c2ccccc2)CC1', 'pIC50', 6.68),
  ('COC(c1ccccc1)c1c(S(=O)(=O)C(F)(F)F)[nH]c2ccc(Cl)cc12 (configuration not stated)', 'pIC50', 5.92);

[P] CCOC(=O)c1[nH]c2ccc(Cl)cc2c1C1(c2ccccc2)CC1
[Q] CCOC(=O)c1[nH]c2ccc(Cl)cc2c1C(OCC)c1ccccc1 (configuration not stated)
Inquiry: In the pair P and Q , the larger recorded pIC50 belongs to which? Lab note: record the label of whichever item you select.
Reply text: Q
(Q: 7.52, P: 5.32)

[1] COC(c1cc(C)cc(C)c1)c1c[nH]c2ccc(Cl)cc12 (configuration not stated)
[2] CCOC(=O)c1[nH]c2ccc(Cl)cc2c1C(O)c1ccccc1 (configuration not stated)
Inquiry: Please indicate which item has the smaller measured pIC50: 1 versus 2 Label of pick, please.
Reply text: 2
(2: 5.94, 1: 6.52)

[P] COC(c1ccccc1)c1c[nH]c2ccc(Cl)cc12 (configuration not stated)
[Q] O=C(OCCO)c1[nH]c2ccc(Cl)cc2c1C1(c2ccccc2)CC1
Inquiry: Please state the entry with greater pIC50 among P and Q . Give the chosen item's label as your response.
Reply text: Q
(Q: 6.15, P: 5.61)

====

assay: Cytotoxicity against HEK293T cells; format: cell-based, HEK-293T; conditions: human
Entries and their CC50
Give the number; µM is assumed, so skip it.

Inquiry: Give the value of CC50 reported for the following: COC(c1ccccc1)c1c[nH]c2ccc(Cl)cc12 (configuration not stated)
Reply text: 67

Inquiry: Return CC50 (reported value) for this molecule: CCOC(=O)c1[nH]c2ccc(Cl)cc2c1C(OCC)c1ccccc1 (configuration not stated)
Reply text: 22.8

Inquiry: Tell me measured CC50 for CCOC(=O)c1[nH]c2ccc(Cl)cc2c1C(OC)c1cc(C)cc(C)c1 (configuration not stated) please.
Reply text: 36.5

Inquiry: Supply CC50 value. Item: CCOC(=O)c1[nH]c2ccc(Cl)cc2c1C(O)c1ccccc1 (configuration not stated)
Reply text: 22.7

Inquiry: Write down CC50 measured for item COC(c1cc(C)cc(C)c1)c1c[nH]c2ccc(Cl)cc12 (configuration not stated)
Reply text: 67.7

Inquiry: Consider the molecule CCOC(=O)c1[nH]c2ccc(Cl)cc2c1C(OC)c1ccccc1 (configuration not stated) and give its recorded CC50.
Reply text: 25.3

Inquiry: Given the molecule COC(c1ccccc1)c1c(S(=O)(=O)C(F)(F)F)[nH]c2ccc(Cl)cc12 (configuration not stated) , write its reported CC50.
Reply text: 24.2

====

system: Human immunodeficiency virus 1; test: Antiviral activity against HIV1 infected in HEK293T cells by p24 ELISA based phenotypic assay; type: functional, organism-based; conditions: Human immunodeficiency virus 1, HEK-293T
IC50 values, listed per item
# number only, unit nM dropped from output

Inquiry: Please supply the value of reported IC50 for the item CCOC(=O)c1[nH]c2ccc(Cl)cc2c1C(OC)c1cc(C)cc(C)c1 (centres undefined)
Reply text: 30
